Value source: patent US20250326748A1

# Tested on: MYB mRNA
# assay-method-text: Splicing RT-qPCR assay, MYB canonical (CJ) and alternative (AJ) junction mRNA
# Type: cell-based, human
# run-conditions: Homo sapiens, canonical junction mRNA, qPCR panel; read-out: MYB CJ (decrease in CJ mRNA levels, IC50)
# Experimental: Compounds described herein were used to modulate RNA transcript abundance in cells. The expression of a target mRNA was measured by detecting the formation of an exon-exon junction in the canonical transcript (CJ). A compound mediated exon-inclusion event was detected by observing an increase in formation of a new junction with an alternative exon (AJ). Real-time qPCR assays were used to detect these splicing switches and interrogate the potency of various compounds towards different target genes. […]
pIC50: −log10 of the molar value.
readout-name: pIC50

IN: If you can, please state the reported pIC50 value of CN[C@H]1CN(c2cnc3nc(-c4cc5cn(C)nc5c(C)c4O)ccc3c2)C[C@@H]1C [Compound 127] .
OUT: > 7.00

IN: Fill blank: measured pIC50 of the molecule CN[C@H]1CCN(c2cnc3nc(-c4cc5cn(C)nc5c(C)c4O)nc(OC)c3c2)C1 [Compound 212] is ____.
OUT: > 7.00

IN: Requested read-out: pIC50. Entry: Cn1cc2cc(-c3ccc4cc(N5CC[C@@H](NCC6CC6)C5)cnc4n3)c(O)c(F)c2n1 [Compound 135]
OUT: > 7.00

IN: For the molecule shown here, C[C@H]1CN(c2cnc3nc(-c4cc(F)c5nn(C)cc5c4)ccc3c2Cl)CCN1 [Compound 385] , give the reported pIC50.
OUT: > 7.00

IN: Sample COc1nc(-c2cc3cn(C)nc3c(F)c2O)nc2ncc(N3CCC(N(C)C)CC3)cc12 [Compound 219] — what was its pIC50?
OUT: > 7.00

IN: # input molecule: COc1nc(-c2cc3cn(C)nc3c(C)c2O)nc2ncc(N3CCNCC3)cc12 [Compound 162] ; wanted: its pIC50
OUT: > 7.00

IN: Which pIC50 value is on record for Cn1cc2cc(-c3cnc4cc(N5CCC(NC6CC6)C5)ccc4n3)c(O)c(F)c2n1 (centres unmarked) [Compound 175] ?
OUT: > 7.00
